system: EPHA2; settings: concentration: 1 μM,replicates: in singlicate; n = 1;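 also: KINOMEscan kinase panel screen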
measured-endpoint: %Inh (%)

[[record]]
compound = "COC(=O)c1cccc(NC(=O)NC2CCN(c3ccnc(Nc4cc(OC)c(OC)c(OC)c4)n3)C2)c1 (stereo not drawn)"
reported_result = 16

[[record]]
compound = "C[C@@H]1CNc2c(sc3ccc4nc(-c5ccncc5)ccc4c23)C(=O)N1"
reported_result = 0

[[record]]
compound = "FC(F)(F)c1cc(Br)cc(Nc2nccc(-c3cnn4ncccc34)n2)c1"
reported_result = 0

[[record]]
compound = "CCN1CCN(CCCC(=O)Nc2n[nH]c3nc(-c4ccc(O)cc4)c(Br)cc23)CC1"
reported_result = 0

[[record]]
compound = "CN1CCN(CCCNc2nccc(-c3c(-c4ccc(F)cc4)nn4cc(C(N)=O)ccc34)n2)CC1"
reported_result = 28

[[record]]
compound = "Nc1nccc(-c2ccc3c(N)n[nH]c3c2)n1"
reported_result = 0

[[record]]
compound = "OCCn1cc(-c2cnc3nnn(Cc4ccc5ncccc5c4)c3n2)cn1"
reported_result = 0

[[record]]
compound = "Cl.Nc1n[nH]c2cc(-c3ccccn3)ccc12"
reported_result = 23

[[record]]
compound = "O=C(NCC1CC1)c1ccc(-c2cc(C(=O)NC3CC3)ccc2F)cc1"
reported_result = 0


Provenance of the data: paper PMC5540273
